- ASSAYED TARGET: SWI/SNF-related matrix-associated actin-dependent regulator of chromatin subfamily A member 4 (Homo sapiens) (UniProt P51532)
- Sequence (P51532 whole entry): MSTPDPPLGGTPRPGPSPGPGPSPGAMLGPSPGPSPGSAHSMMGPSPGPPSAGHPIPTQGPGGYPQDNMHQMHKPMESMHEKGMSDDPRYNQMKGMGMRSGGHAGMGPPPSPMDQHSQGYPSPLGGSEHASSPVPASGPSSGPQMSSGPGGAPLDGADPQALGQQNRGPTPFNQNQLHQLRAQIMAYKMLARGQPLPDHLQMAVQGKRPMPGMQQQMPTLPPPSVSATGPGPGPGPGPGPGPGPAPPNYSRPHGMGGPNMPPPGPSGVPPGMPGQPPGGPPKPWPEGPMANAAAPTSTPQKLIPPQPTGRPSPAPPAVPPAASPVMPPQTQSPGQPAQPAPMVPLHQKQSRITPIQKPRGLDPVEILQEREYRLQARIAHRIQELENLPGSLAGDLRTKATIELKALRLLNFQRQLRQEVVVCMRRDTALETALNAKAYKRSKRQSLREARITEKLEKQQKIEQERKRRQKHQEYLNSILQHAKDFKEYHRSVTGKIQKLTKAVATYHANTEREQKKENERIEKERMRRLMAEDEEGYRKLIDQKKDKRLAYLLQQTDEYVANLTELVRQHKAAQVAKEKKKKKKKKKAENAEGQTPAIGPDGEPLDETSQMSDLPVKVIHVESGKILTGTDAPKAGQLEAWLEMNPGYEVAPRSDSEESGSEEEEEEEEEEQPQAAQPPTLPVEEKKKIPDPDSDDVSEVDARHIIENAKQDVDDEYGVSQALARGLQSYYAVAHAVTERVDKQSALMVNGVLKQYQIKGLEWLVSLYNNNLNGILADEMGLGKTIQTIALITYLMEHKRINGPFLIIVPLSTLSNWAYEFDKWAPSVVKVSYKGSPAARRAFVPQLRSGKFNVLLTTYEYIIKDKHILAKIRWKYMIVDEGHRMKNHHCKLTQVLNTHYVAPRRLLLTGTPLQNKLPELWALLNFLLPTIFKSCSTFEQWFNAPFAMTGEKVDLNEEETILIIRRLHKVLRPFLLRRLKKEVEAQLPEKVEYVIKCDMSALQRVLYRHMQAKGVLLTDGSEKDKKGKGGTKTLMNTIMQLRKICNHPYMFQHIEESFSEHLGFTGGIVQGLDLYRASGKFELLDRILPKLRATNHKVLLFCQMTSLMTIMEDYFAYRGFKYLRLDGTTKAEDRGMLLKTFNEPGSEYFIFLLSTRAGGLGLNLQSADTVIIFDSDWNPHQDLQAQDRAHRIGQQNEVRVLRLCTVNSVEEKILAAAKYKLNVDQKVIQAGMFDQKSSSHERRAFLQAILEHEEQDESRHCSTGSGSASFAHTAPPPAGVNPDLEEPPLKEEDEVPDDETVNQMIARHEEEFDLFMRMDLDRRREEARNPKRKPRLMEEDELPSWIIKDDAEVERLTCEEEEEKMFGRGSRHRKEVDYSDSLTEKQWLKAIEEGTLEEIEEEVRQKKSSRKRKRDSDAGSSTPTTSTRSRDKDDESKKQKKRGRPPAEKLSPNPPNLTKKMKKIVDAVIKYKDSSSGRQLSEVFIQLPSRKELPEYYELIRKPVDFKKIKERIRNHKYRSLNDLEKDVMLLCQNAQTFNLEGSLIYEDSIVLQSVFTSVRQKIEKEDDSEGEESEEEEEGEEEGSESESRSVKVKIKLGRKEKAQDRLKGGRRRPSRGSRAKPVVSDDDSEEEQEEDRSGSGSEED
- TEST DESCRIPTION: Binding affinity to BRG1 (unknown origin) assessed as increase in protein melting temperature at 50 umol by real-time PCR system based thermal shift assay
MEASURE NAME: ΔTm (°C)

Nc1ccc(-c2csc(=O)[nH]2)cc1S(=O)(=O)NC1CCCC1 ... 0.39
Cc1ccc(-c2csc(=O)[nH]2)cc1S(=O)(=O)NC1CCCC1 ... 0.69
COc1ccc(-c2csc(=O)[nH]2)cc1S(=O)(=O)NC1CCCC1 ... 0.41
O=C(Nc1cc(-c2csc(=O)[nH]2)cc(S(=O)(=O)NC2CCCC2)c1)C1CC1 ... 1.03
Cc1c(Br)cc(-c2csc(=O)[nH]2)cc1S(=O)(=O)NC1CCCC1 ... 0.94
Cc1c(N)cc(-c2csc(=O)[nH]2)cc1S(=O)(=O)NC1CCCC1 ... 0.57

###

- ASSAYED TARGET: CYP3A4 (Homo sapiens, UniProt P08684)
- Sequence (P08684 whole entry): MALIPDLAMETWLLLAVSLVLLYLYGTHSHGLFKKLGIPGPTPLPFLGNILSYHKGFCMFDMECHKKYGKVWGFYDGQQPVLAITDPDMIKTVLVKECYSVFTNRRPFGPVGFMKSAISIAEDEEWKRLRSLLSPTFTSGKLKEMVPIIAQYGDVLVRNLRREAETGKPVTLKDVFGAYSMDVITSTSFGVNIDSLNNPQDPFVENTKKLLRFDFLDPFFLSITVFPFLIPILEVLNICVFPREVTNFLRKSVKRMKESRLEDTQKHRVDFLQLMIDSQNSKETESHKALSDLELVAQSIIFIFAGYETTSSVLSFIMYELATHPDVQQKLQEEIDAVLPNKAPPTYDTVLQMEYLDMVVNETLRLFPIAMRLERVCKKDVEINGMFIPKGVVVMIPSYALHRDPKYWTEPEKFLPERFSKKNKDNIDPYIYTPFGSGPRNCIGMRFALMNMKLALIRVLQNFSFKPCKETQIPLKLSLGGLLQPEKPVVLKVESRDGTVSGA
- TEST DESCRIPTION: Inhibition of CYP3A4 in human liver microsomes at 10 uM using midazolam substrate preincubated for 5 mins before NADPH addition and measured after 20 mins post NADPH addition
- Format: ADME
- CONDITIONS: probe midazolam
MEASURE NAME: inhibition at 20 min, 10 µM (%)

COc1ccc(-c2csc(=O)[nH]2)cc1S(=O)(=O)NC1CCCC1 ... 20
COc1cc2c(cc1-c1c(C)noc1C)ncc1[nH]c(=O)n([C@H](C)c3ccccn3)c12 ... 21
O=C(Nc1cc(-c2csc(=O)[nH]2)cc(S(=O)(=O)NC2CCCC2)c1)C1CC1 ... 14
Nc1ccc(-c2csc(=O)[nH]2)cc1S(=O)(=O)NC1CCCC1 ... 70
Cc1sc2c(c1C)C(c1ccc(Cl)cc1)=N[C@@H](CC(=O)OC(C)(C)C)c1nnc(C)n1-2 ... 30
O=C(Nc1cc(-c2csc(=O)[nH]2)cc(S(=O)(=O)NC2CCCC2)c1)c1cccs1 ... 17
Cc1c(Br)cc(-c2csc(=O)[nH]2)cc1S(=O)(=O)NC1CCCC1 ... 42
Cc1ccc(-c2csc(=O)[nH]2)cc1S(=O)(=O)NC1CCCC1 ... 62
Cc1c(N)cc(-c2csc(=O)[nH]2)cc1S(=O)(=O)NC1CCCC1 ... 42

###

Reported IC50 values for the following compounds.
- Tested on: HT-29
- TEST DESCRIPTION: Growth inhibition of human HT-29 cells after 72 hrs by SRB assay
- Type: functional, cell-based
- CONDITIONS: HT-29, 72 h
MEASURE NAME: IC50 (µM)

Nc1ccc(-c2csc(=O)[nH]2)cc1S(=O)(=O)NC1CCCC1 ... 3.28
O=c1[nH]c(-c2ccc(F)c(S(=O)(=O)NC3CCCC3)c2)cs1 ... 35.2
Cc1c(N)cc(-c2csc(=O)[nH]2)cc1S(=O)(=O)NC1CCCC1 ... 0.86
O=C(Nc1cc(-c2csc(=O)[nH]2)cc(S(=O)(=O)NC2CCCC2)c1)C1CC1 ... 5.69
Cc1c(Br)cc(-c2csc(=O)[nH]2)cc1S(=O)(=O)NC1CCCC1 ... 5.46
O=c1[nH]c(-c2ccc(Cl)c(S(=O)(=O)NC3CCCC3)c2)cs1 ... 23.7
Cc1sc2c(c1C)C(c1ccc(Cl)cc1)=N[C@@H](CC(=O)OC(C)(C)C)c1nnc(C)n1-2 ... 0.104

The measurements presented in this section are drawn from ChEMBL document CHEMBL3407418.
